system: KHYG-1 (IL-2 2.5 ng/mL); experiment: drug sensitivity score (DSS) (DSS units); higher = more sensitive; extreme values may be limits of the assay; settings: 72 h
Tick fulfilled if drug sensitivity score is 6 or greater. Tick not fulfilled if drug sensitivity score is less than 6.

COMPOUND	ASSIGNED LABEL
CNc1nc(-c2ccc3c(N)n[nH]c3c2)cc(N2C[C@@H](C(=O)NC3CCCCC3)CC[C@H]2C)n1 (max concentration tested 10000 nM)	not fulfilled
CN1CCN(C2CCN(C(=O)Nc3cc(Oc4ccc(NC(=O)C5(C(=O)Nc6ccc(F)cc6)CC5)c(F)c4)ccn3)CC2)CC1 [Golvatinib] (max concentration tested 2500 nM)	not fulfilled
CC[C@@H]1C(=O)N(C)c2cnc(Nc3ccc(C(=O)N[C@H]4CC[C@H](N5CCN(CC6CC6)CC5)CC4)cc3OC)nc2N1C(C)C [Volasertib] (max concentration tested 1000 nM)	fulfilled
Cn1cc(CNCC2CCN(c3ncc(C(=O)NO)cn3)CC2)c2ccccc21 [Quisinostat] (max concentration tested 1000 nM)	fulfilled
COc1cc2ncnc(Oc3cccc(NC(=O)Nc4cc(C(C)(C)C(F)(F)F)on4)c3)c2cc1OC (max concentration tested 10000 nM)	not fulfilled
Cn1cc(-c2ccc3nnc(Sc4ccc5ncccc5c4)n3n2)cn1 [SGX-523] (max concentration tested 5000 nM)	not fulfilled
Cc1c(C(=O)Nc2ccc(N3C[C@@H](C)O[C@@H](C)C3)nc2)cccc1-c1ccc(OC(F)(F)F)cc1 [Sonidegib] (max concentration tested 10000 nM)	not fulfilled
CN1CCc2c(c3ccccc3n2Cc2ccc(C(=O)NO)cc2)C1 [Tubastatin A] (max concentration tested 10000 nM)	not fulfilled
Cc1nc(N)sc1-c1ccnc(Nc2ccc(N3CCOCC3)cc2)n1 [CYC-116] (max concentration tested 10000 nM)	fulfilled
CNCc1ccc(-c2[nH]c3cc(F)cc4c3c2CCNC4=O)cc1 [Rucaparib] (max concentration tested 10000 nM)	not fulfilled
O=C1CCC(N2C(=O)c3ccccc3C2=O)C(=O)N1 (stereo unspecified) [Thalidomide] (max concentration tested 10000 nM)	not fulfilled
CON(C)C(=O)N1N=C(c2cc(F)ccc2F)S[C@@]1(CCCN)c1ccccc1 [ARRY-520] (max concentration tested 1000 nM)	fulfilled
O=C(NOCC1CC1)c1ccc(F)c(F)c1Nc1ccc(I)cc1Cl (max concentration tested 10000 nM)	fulfilled
c1ccc([C@H]2CN3CCSC3=N2)cc1 [Levamisole] (max concentration tested 10000 nM)	not fulfilled
Nc1cccc2c1C(=O)N(C1CCC(=O)NC1=O)C2=O (stereo unspecified) [Pomalidomide] (max concentration tested 10000 nM)	not fulfilled
S=C(NCc1ccc2c(c1)OCO2)N1CCN(c2ncnc3c2oc2ccccc23)CC1 [Amuvatinib] (max concentration tested 10000 nM)	fulfilled
COc1cc(Nc2c(C#N)cnc3cc(OCCCN4CCN(C)CC4)c(OC)cc23)c(Cl)cc1Cl [Bosutinib] (max concentration tested 10000 nM)	fulfilled
Cc1c(NC(=O)OC[C@@H]2COCCN2)cn2ncnc(Nc3ccc4c(cnn4Cc4cccc(F)c4)c3)c12 (max concentration tested 10000 nM)	not fulfilled
OCCn1cc(-c2cnc3nnn(Cc4ccc5ncccc5c4)c3n2)cn1 (max concentration tested 2500 nM)	not fulfilled
COc1cc(C(=O)NC2CCN(C)CC2)c(F)cc1Nc1ncc2c(n1)N(C1CCCC1)CC(F)(F)C(=O)N2C [TAK-960] (max concentration tested 2500 nM)	not fulfilled
COc1cc2c(N3CCN(C(=O)Nc4ccc(OC(C)C)cc4)CC3)ncnc2cc1OCCCN1CCCCC1 [Tandutinib] (max concentration tested 1000 nM)	not fulfilled

###

Each entry below carries its reported percent inhibition of viability.
test system: NK-YS (IL-2 2.5 ng/mL); assay: percent inhibition of viability; higher = more inhibition; details: 72 h; 0.1 nM

MOLECULE	percent inhibition of viability
Cc1nc(Nc2ncc(C(=O)Nc3c(C)cccc3Cl)s2)cc(N2CCN(CCO)CC2)n1 [Dasatinib] (max concentration tested 1000 nM)	-0.77%
C/C(=C\c1csc(C)n1)[C@@H]1C[C@@H]2O[C@]2(C)CCC[C@H](C)[C@H](O)[C@@H](C)C(=O)C(C)(C)[C@@H](O)CC(=O)N1 [Ixabepilone] (max concentration tested 1000 nM)	-10.3%
CC[C@@H]1C(=O)N(C)c2cnc(Nc3ccc(C(=O)N[C@H]4CC[C@H](N5CCN(CC6CC6)CC5)CC4)cc3OC)nc2N1C(C)C [Volasertib] (max concentration tested 1000 nM)	-1.3%

###

tested on: IMC-1 (IL-2 20 ng/mL); test: percent inhibition of viability; higher = more inhibition; details: 72 h; 1 nM
percent inhibition of viability values, listed per item
RECORDED ENDPOINT: percent inhibition of viability (%)

> print(dat)
                                   compound                recorded.endpoint  unit.text  recorded.measurement
1  CC(C)CC(=O)Nc1n[nH]c2c1CN(C(=O)C1CCN(C)CC1)C2(C)C (max concentration tested 10000 nM)  percent inhibition of viability          %                  3.15
2  COc1cc2ncnc(Oc3cccc(NC(=O)Nc4cc(C(C)(C)C(F)(F)F)on4)c3)c2cc1OC (max concentration tested 10000 nM)  percent inhibition of viability          %                 -1.62
3  Cn1cc(CNCC2CCN(c3ncc(C(=O)NO)cn3)CC2)c2ccccc21 [Quisinostat] (max concentration tested 1000 nM)  percent inhibition of viability          %                 -0.52

###

test system: KAI3 (IL-2 2.5 ng/mL); assay: percent inhibition of viability; higher = more inhibition; details: 72 h; 1000 nM
RECORDED ENDPOINT: percent inhibition of viability (%)

> print(dat)
                                   compound                recorded.endpoint  recorded.measurement
1  Oc1c2ccccc2c2c3c(cccc13)N=N2 (max concentration tested 100000 nM)  percent inhibition of viability                 -1.44
2  Cc1nc(C(=O)NCC(=O)O)c(O)c2ccc(Oc3ccccc3)cc12 [FG-4592] (max concentration tested 10000 nM)  percent inhibition of viability                 -0.39
3  O=C1c2c(O)ccc(O)c2C(=O)c2c(NCCNCCO)ccc(NCCNCCO)c21 [Mitoxantrone] (max concentration tested 1000 nM)  percent inhibition of viability                  74.6
4  CC(C)(C#N)c1cc(Cn2cncn2)cc(C(C)(C)C#N)c1 [Anastrozole] (max concentration tested 10000 nM)  percent inhibition of viability                 -3.97
5  CN(C)C[C@@H]1CCn2cc(c3ccccc32)C2=C(C(=O)NC2=O)c2cn(c3ccccc23)CCO1 [Ruboxistaurin] (max concentration tested 10000 nM)  percent inhibition of viability                    32
6  CNCc1ccc(-c2[nH]c3cc(F)cc4c3c2CCNC4=O)cc1 [Rucaparib] (max concentration tested 10000 nM)  percent inhibition of viability                  18.5

###

system: IMC-1 (IL-2 20 ng/mL); experiment: percent inhibition of viability; higher = more inhibition; settings: 72 h; 1000 nM
Each record here notes measured percent inhibition of viability.

COMPOUND	UNIT TEXT	percent inhibition of viability
CN1CCN(CCOc2cc(OC3CCOCC3)c3c(Nc4c(Cl)ccc5c4OCO5)ncnc3c2)CC1 [Saracatinib] (max concentration tested 10000 nM)	%	-0.89
CC(C)C(=O)Nc1ccc([N+](=O)[O-])c(C(F)(F)F)c1 [Flutamide] (max concentration tested 10000 nM)	%	-2.71
c1ccc([C@H]2CN3CCSC3=N2)cc1 [Levamisole] (max concentration tested 10000 nM)	%	-2.24
CO[C@H]1/C=C\C=C(/C)C(=O)NC2=CC(=O)C(NCCN(C)C)=C(C[C@@H](C)C[C@H](OC)[C@H](O)[C@@H](C)/C=C(\C)[C@@H]1OC(N)=O)C2=O [Alvespimycin] (max concentration tested 1000 nM)	%	101
COc1cc2c(cc1-c1c(C)noc1C)ncc1[nH]c(=O)n([C@H](C)c3ccccn3)c12 [I-BET151] (max concentration tested 10000 nM)	%	11.4
O=C(Nc1c[nH]nc1-c1nc2ccc(CN3CCOCC3)cc2[nH]1)NC1CC1 [AT9283] (max concentration tested 1000 nM)	%	100
O=C(CCBr)N1CCN(C(=O)CCBr)CC1 [Pipobroman] (max concentration tested 10000 nM)	%	4.89
CN(C)Cc1ccc(S(=O)(=O)n2ccc(/C=C/C(=O)NO)c2)cc1 [Resminostat] (max concentration tested 10000 nM)	%	-7.01
Cc1nc(C(=O)NCC(=O)O)c(O)c2ccc(Oc3ccccc3)cc12 [FG-4592] (max concentration tested 10000 nM)	%	-1.57
CC(O)(CS(=O)(=O)c1ccc(F)cc1)C(=O)Nc1ccc(C#N)c(C(F)(F)F)c1 (stereo not drawn) [Bicalutamide] (max concentration tested 10000 nM)	%	9.75
C[C@]12C=CC(=O)C=C1CC[C@@H]1[C@@H]2C(=O)C[C@@]2(C)[C@H]1CC[C@]2(O)C(=O)CO [Prednisone] (max concentration tested 10000 nM)	%	4.05
COc1cc(N2CCN(C)CC2)ccc1Nc1nccc(-c2cn(C)c3cnccc23)n1 [AZ191] (max concentration tested 10000 nM)	%	2.63
COc1ccccc1S(=O)(=O)Nc1ccc2c(c1)CN(C)C(=O)N2 [PFI-1] (max concentration tested 10000 nM)	%	1.44
